- subject-of-test: PGF synthase (PGFS) (Homo sapiens, UniProt P42330)
- Sequence (P42330 whole entry): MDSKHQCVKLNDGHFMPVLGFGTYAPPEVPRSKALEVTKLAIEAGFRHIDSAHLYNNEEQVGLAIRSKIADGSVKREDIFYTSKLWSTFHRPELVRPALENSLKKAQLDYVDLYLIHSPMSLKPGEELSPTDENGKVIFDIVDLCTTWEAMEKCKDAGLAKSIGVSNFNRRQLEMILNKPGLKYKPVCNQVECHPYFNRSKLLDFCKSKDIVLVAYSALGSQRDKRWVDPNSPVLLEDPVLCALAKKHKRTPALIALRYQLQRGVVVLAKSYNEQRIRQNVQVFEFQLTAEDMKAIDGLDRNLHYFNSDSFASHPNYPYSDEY
- assay-summary: Test on PGFS (PGF synthase; phenanthrenequinone/NADPH, 340 nm)
- Format: biochemical
- measurement-context: Example II-2; read-out: Inhibition of PGF synthase IC50fs
pIC50: −log10 of the molar value.
assay-metric: pIC50

Documented pIC50 of `COc1ccccc1/C=C(\C#N)c1nn(-c2ccccc2)c(N)c1C#N` : < 4.30

###

- subject-of-test: PGF synthase (PGFS) (Homo sapiens, UniProt P42330)
- assay-summary: Test on PGFS (PGF synthase; phenanthrenequinone/NADPH, 340 nm)
- Format: biochemical
- measurement-context: Example I-5; read-out: Inhibition of PGFS IC50fs
- Method: The PGF synthase enzyme is obtained as described in FR-A-02/05067, at a concentration of 0.5 mg/ml, in suspension in an appropriate medium, and is blocked at −80° C. For the needs of the test, this suspension is thawed and stored in ice. […] 0.950 ml of this buffer (brought beforehand to 37° C.) is introduced into the cuvette of a spectrophotometer (Perkin-Elmer, Lambda 2) thermostatically controlled at 37° C., the measuring wavelength of which is set at 340 nm. […] The maximum reaction rate is recorded. […]
assay-metric: IC50
Give the figure together with its unit, number first.

Documented IC50 of O=C1NC(=O)/C(=C/c2ccc(-c3ccc(C(=O)O)cc3)o2)S1 [Compound 1] : 4 µM
